A collection of compounds and their measured EC50
Molecular target: glucokinase (GK) (Homo sapiens, UniProt P35557)
Construct: I.D. No. 1 corresponds to residues 12-465 of glucokinase
Sequence (P35557 with tags, fused parts or gaps isoform P35557-2): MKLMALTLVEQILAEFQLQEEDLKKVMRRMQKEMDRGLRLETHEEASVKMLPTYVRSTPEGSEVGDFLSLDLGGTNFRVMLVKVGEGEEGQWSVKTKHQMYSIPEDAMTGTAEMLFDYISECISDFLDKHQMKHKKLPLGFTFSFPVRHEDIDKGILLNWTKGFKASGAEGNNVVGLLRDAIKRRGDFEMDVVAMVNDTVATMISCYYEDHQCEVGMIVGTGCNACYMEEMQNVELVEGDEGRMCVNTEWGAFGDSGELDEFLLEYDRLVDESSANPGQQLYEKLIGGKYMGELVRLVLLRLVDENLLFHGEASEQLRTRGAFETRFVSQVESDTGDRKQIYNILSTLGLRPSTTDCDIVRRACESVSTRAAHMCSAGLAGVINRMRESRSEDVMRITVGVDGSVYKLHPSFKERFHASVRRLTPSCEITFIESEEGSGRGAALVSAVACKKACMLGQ
Assay: enzymatic glucokinase activity assay (ATP consumption, KinaseGlo luminescence)
Conditions: recombinant GK residues 12-465; 5 μM ATP, 5 mM Glucose; Kact = concentration that displays 50% of the maximal increase in GK activity; read-out: pKact

COMPOUND: Cc1cc(S(=O)(=O)C2CCCC2)cc(=O)n1C(CC1CC1)C(=O)Nc1nccs1 (stereo not drawn) [Example 12]
EXPERIMENTAL SYSTEM: glucokinase (GK) (Homo sapiens, UniProt P35557)
REPORTED VALUE: 1.58 to 15.8 µM

COMPOUND: Cc1cc(Br)cc(=O)n1[C@@H](CC1CCCCC1)C(=O)Nc1nccs1 [Example 61]
EXPERIMENTAL SYSTEM: glucokinase (GK) (Homo sapiens, UniProt P35557)
REPORTED VALUE: > 15.8 µM

COMPOUND: O=C(Nc1nc2cccnc2s1)[C@H](CC1CCOCC1)n1ccc(S(=O)(=O)C2CC2)cc1=O [Example 52]
EXPERIMENTAL SYSTEM: glucokinase (GK) (Homo sapiens, UniProt P35557)
REPORTED VALUE: 1.58 to 15.8 µM

COMPOUND: Cc1cc(S(=O)(=O)C2CC2)c(N)c(=O)n1[C@H](CC1CCCC1)C(=O)Nc1ncc(F)s1 [Example 154]
EXPERIMENTAL SYSTEM: glucokinase (GK) (Homo sapiens, UniProt P35557)
REPORTED VALUE: 1.58 to 15.8 µM

COMPOUND: Cc1cnc(NC(=O)C(CC2CCOCC2)n2ccc(OCc3ccccc3)cc2=O)s1 (stereo not drawn) [Example 55]
EXPERIMENTAL SYSTEM: glucokinase (GK) (Homo sapiens, UniProt P35557)
REPORTED VALUE: 1.58 to 15.8 µM

COMPOUND: CCCCC(C(=O)Nc1nccs1)n1c(C)cc(S(=O)(=O)C2CCCC2)cc1=O (stereo not drawn) [Example 18]
EXPERIMENTAL SYSTEM: glucokinase (GK) (Homo sapiens, UniProt P35557)
REPORTED VALUE: 1.58 to 15.8 µM

COMPOUND: Cc1cc(S(=O)(=O)c2cccc(F)c2)cc(=O)n1[C@@H](CC1CCOCC1)C(=O)Nc1ncc(F)s1 [Example 189]
EXPERIMENTAL SYSTEM: glucokinase (GK) (Homo sapiens, UniProt P35557)
REPORTED VALUE: 1.58 to 15.8 µM

COMPOUND: Cc1c(S(=O)(=O)C2CCCC2)c(C)c(=O)n(C(CC2CCOCC2)C(=O)Nc2ncc(Cl)s2)c1C (stereo not drawn) [Example 118]
EXPERIMENTAL SYSTEM: glucokinase (GK) (Homo sapiens, UniProt P35557)
REPORTED VALUE: < 1.58 µM

Kindly note the recorded EC50 for Cc1cc(S(=O)(=O)C2CC2)cc(=O)n1C(CC(C)(C)C)C(=O)Nc1ncc(Cl)s1 (stereo not drawn) [Example 25] , which is < 1.58 µM

Briefly, EC50 measured for Cc1cc(S(=O)(=O)c2cccc(F)c2)cc(=O)n1C(CC1CCOCC1)C(=O)Nc1ncc(F)s1 (stereo not drawn) [Example 159] : 1.58 to 15.8 µM
